target under test: Dimeric Monkey Ang-2FD conjugated to human IgG1 (monkey (Macca fascicularis))
Sequence (chain, as listed by the source limits assumed): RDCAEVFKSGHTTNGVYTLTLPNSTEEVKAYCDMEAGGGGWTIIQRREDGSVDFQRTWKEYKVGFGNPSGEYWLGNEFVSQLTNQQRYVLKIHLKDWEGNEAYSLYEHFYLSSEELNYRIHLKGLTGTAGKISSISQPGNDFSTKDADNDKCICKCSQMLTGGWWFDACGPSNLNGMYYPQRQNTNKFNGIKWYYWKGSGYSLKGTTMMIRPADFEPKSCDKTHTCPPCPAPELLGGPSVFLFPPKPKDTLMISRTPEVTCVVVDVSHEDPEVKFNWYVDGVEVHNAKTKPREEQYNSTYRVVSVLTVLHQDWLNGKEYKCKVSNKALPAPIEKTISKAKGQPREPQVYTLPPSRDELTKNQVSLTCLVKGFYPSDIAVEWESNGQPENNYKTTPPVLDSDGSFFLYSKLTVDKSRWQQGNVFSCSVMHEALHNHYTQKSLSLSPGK
test method notes: SPR, antibody captured, room temperature
metric: T1/2 (min)
Just the number please, in min, no unit attached.

Field: example entries. Status: answers known.
INSERT INTO assay_data (binder, value_unit, reported_result) VALUES
  ('H2M742N (antibody, V domains shown) VH: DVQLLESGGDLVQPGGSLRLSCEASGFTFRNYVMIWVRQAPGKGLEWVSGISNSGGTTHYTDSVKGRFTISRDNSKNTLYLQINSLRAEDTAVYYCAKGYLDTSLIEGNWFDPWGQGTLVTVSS VL: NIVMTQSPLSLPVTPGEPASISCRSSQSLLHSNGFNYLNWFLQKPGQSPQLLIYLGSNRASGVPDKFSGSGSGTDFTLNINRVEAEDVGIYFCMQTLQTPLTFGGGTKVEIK', 'min', 28.5),
  ('H2M743N (antibody, V domains shown) VH: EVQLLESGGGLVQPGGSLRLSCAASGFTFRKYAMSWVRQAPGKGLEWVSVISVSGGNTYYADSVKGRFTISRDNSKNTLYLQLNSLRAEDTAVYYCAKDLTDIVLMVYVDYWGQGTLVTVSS VL: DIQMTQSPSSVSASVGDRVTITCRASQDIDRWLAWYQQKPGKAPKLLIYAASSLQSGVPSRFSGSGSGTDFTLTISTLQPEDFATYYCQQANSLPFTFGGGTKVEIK', 'min', 169);

get_value(item= H1M724N (antibody, V domains shown) VH: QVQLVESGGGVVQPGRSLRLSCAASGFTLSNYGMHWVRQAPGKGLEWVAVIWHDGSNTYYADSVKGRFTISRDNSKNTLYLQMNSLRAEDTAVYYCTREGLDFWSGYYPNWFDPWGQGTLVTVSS VL: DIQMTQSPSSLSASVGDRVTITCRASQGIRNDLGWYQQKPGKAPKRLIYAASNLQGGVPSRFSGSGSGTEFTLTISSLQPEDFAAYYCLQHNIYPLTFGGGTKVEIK , readout=T1/2) returns 25.7

get_value(item= H1M732N (antibody, V domains shown) VH: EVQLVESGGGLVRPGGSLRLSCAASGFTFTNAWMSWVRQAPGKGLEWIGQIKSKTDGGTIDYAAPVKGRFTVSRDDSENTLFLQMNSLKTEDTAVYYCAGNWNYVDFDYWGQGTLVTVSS VL: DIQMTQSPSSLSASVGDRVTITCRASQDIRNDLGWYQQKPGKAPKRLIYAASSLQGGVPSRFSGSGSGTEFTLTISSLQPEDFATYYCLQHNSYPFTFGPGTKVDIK , readout=T1/2) returns 24.1

get_value(item= H2M730N (antibody, V domains shown) VH: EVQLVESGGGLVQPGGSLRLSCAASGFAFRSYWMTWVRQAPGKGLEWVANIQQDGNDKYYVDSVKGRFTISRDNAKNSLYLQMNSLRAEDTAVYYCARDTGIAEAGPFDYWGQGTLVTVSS VL: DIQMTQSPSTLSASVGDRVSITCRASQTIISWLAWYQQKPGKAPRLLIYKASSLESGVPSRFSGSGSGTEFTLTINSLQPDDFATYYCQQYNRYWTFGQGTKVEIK , readout=T1/2) returns 36.6

get_value(item= H2M750N (antibody, V domains shown) VH: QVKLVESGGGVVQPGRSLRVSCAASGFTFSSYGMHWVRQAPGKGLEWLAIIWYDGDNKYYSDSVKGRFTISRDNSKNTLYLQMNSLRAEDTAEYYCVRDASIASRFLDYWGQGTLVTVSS VL: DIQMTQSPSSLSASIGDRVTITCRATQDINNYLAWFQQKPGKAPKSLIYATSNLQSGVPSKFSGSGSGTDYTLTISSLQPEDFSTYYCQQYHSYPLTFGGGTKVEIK , readout=T1/2) returns 23

get_value(item= H1M728N (antibody, V domains shown) VH: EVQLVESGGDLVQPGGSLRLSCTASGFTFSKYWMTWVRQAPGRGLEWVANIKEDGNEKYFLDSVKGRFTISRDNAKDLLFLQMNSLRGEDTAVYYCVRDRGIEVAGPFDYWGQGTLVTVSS VL: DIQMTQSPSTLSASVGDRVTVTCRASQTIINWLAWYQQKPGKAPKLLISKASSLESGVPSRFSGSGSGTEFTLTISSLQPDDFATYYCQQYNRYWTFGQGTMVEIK , readout=T1/2) returns 69.5
